Sourced from patent US20260116991A1

This section presents binders with their documented OD450 at 100 nM values.
target: T1, monkey GPC3-His protein (monkey); assay: ELISA, monkey GPC3-His coated;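 note: Plate-coated antigen at 1 µg/mL, antibody binding 2 h at 37 °C, detected with HRP-labeled secondary antibody and TMB, absorbance at 450 nm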
T1 construct: Bought recombinant protein; also called monkey GPC3 protein
Numbers only; they are read as OD450.

Recorded OD450 at 100 nM, per entry:
[[record]]
binder = "F1.153.1 (antibody, human IgG1, kappa, V domains shown, Human-murine chimeric antibody) VH: QIQLVQSGPELKKPGETVKISCKASGYTFTTAGMQWVQKMPGKGFKWIGWINTHSGEPQYAEDFKGRFAFSLETSASTAYLQISNLKNEDTATYFCARSFYYHGSSFFYFDYWGQGTTLTVSS VL: DIVMTQSQKFMSTTVGDRVSITCKASQNVGTAVAWYQQKPGQSPKLLIYSASNRYTGVPDRFTGSGSGADFTLTISNMQSEDLADYFCQQYSRYPLTFGAGTKLELKR"
unit_abbreviation = "OD450"
endpoint_result = 2

[[record]]
binder = "F1.62.9 (antibody, human IgG1, kappa, V domains shown, Human-murine chimeric antibody) VH: QVQLQQSDAELVKPGASVKISCKVSGYIFTDHTIHWMKQRPEQGLEWIGYIYPRDGSIKYNENFKGKATLTADKSSSATYMQLNSLTSEDSAVYFCARPIYYDYAYYFDYWGQGTTLTVSS VL: DVVMTQSPLSLPVSLGDQASISCRSRQSLVHSNGNTYLHWYLQKPGQSPKVLIYKVSNRFSGVPDRFSGSGSGTDFTLKISRVEAEDLGVYFCSQSTHVPYTFGGGTKLEIKR"
unit_abbreviation = "OD450"
endpoint_result = 1.06

[[record]]
binder = "F1.41.17 (antibody, human IgG1, kappa, V domains shown, Human-murine chimeric antibody) VH: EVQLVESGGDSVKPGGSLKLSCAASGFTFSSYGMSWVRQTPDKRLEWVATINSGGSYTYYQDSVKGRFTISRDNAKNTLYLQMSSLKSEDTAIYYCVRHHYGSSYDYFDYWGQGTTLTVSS VL: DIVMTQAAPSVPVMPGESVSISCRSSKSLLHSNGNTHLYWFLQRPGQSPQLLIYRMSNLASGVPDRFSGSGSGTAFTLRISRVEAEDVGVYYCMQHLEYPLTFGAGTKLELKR"
unit_abbreviation = "OD450"
endpoint_result = 1.24


May I ask what OD450 at 100 nM has been recorded for F1.111.11 (antibody, human IgG1, kappa, V domains shown, Human-murine chimeric antibody) VH: EVQLQQSGPELVKPGASVKISCKASGYTFTDYYMNWVKQSHGKSLEWIGDIYPNNGDTTYNQRFKGKATLTVDKSSSTAYMELRSLASEDSAVYYCACPYNNPFGYWGQGTLVTVSA VL: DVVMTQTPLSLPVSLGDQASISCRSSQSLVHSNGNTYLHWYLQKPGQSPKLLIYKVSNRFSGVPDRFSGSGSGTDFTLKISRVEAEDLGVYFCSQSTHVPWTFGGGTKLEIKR ?
2.66

Consider the binder F3.81.19 (antibody, human IgG1, kappa, V domains shown, Human-murine chimeric antibody) VH: QVQLQQSGAELVRPGASVKLSCKASGYTFTDYEMHWVKQTPVHGLEWIGTIDPETGNTAYNQKFKGKATLTADKSSSTAYMELRSLTSEDSAVYYCTRPYSLTYWGQGTLVTVSA VL: DVLLTQTPLSLPVSLGDQASISCRSSQSFVHSNGDTYLQWYLQKPGQSPKLLIYKVSNRFSGVPDRFSGSGSGTDFTLKISRVEAEDLGVYYCFQGSHVPYTFGSGTKLEIKR and give its measured OD450 at 100 nM.
2.49

Quick one: OD450 at 100 nM of F2.39.2 (antibody, human IgG1, kappa, V domains shown, Human-murine chimeric antibody) VH: QVQLQQSGAELVRPGASVKVSCKASGYTFTDYEMHWMKQTPVHGLEWIGANEPETGRSAYDQKFKGKATLTADKSSSTAYMELRSLTSEDSAVYYCTRFYSFAYWGQGTLVTVSA VL: DVVMTQTPLSLPVSLGDQASISCRSSQGLVHNNGNTYLHWYLQKPGQSPKLLIYKVSNRFSGVPDRFSGSGSGTDFTLKISRVEAEDLGVYFCSQNTHVPPTFGGGTKLEIKR ?
2.35
